test: Vehicle candidates tested to solubilize A-5021 at 5 mg/mL at neutral pH; type: physicochemical; conditions: aqueous with cosolvent or surfactant or cyclodextrin; vehicle (iii) 60% w/v propylene glycol+15% w/v glycerol in water; pH 6.98-7.1 1; read-out: concentration of A-5021 solubilized
MEASURED ATTRIBUTE: solubility (µg/mL)
Your answer is read as µg/mL, so omit the unit and give the number.

q: # lookup: solubility of Nc1nc2c(ncn2C[C@]2(CO)C[C@H]2CO)c(=O)[nH]1
a: 5000

* * *

test: Solubility of A-5021 by slurry experiments (24 h equilibration, filtration, HPLC of filtrate); assay type: physicochemical; conditions: 80% (v/v) propylene glycol / 20% (v/v) buffer, pH 1, aqueous with cosolvent or surfactant or cyclodextrin, thermodynamic from solid, 80% (v/v) propylene glycol in 20% (v/v) buffer (pH 1 1.3); highest solubility
MEASURED ATTRIBUTE: solubility at 24 h (µg/mL)
Your answer is read as µg/mL, so omit the unit and give the number.

q: # lookup: solubility at 24 h of Nc1nc2c(ncn2C[C@]2(CO)C[C@H]2CO)c(=O)[nH]1 [Formulation A-5021]
a: 8640
